Documented BTX inhibition across a set of compounds
Test system: batrachotoxin (BTX) binding site of the sodium channel
ASSAY PROTOCOL: Affinity to the batrachotoxin (BTX) binding site of the sodium channel
APPLIED CONDITIONS: Table III; rat cerebrocortex synaptosomes; test concentration not given
Lab note: write the figure by itself, no unit.

The following compounds have reported results that may help.
COMPOUND: CC(C)CC1NC2(CCN(C(=O)c3cccc(N(C)C)c3)CC2)N(Cc2ccccc2C#N)C1=O (stereo not shown)
BTX inhibition: 42
--
COMPOUND: Cc1cc(C(=O)N2CCC3(CC2)NC(CC(C)C)C(=O)N3Cc2c(Cl)cccc2Cl)c(C)o1 (stereo not shown)
BTX inhibition: 63
--
COMPOUND: CN1C(=O)C(Cc2ccccc2)NC12CCN(C(=O)COc1ccccc1)CC2 (stereo not shown)
BTX inhibition: 62
--
COMPOUND: CCC(C(=O)N1CCC2(CC1)NC(Cc1ccccc1)C(=O)N2Cc1ccccc1)c1ccccc1 (stereo not shown)
BTX inhibition: 42
--
COMPOUND: CC(C)C1NC2(CCN(C(=O)COc3cccc(Cl)c3)CC2)N(CCOc2ccccc2)C1=O (stereo not shown)
BTX inhibition: 63

Given CCOc1ccc(C(=O)N2CCC3(CC2)NC(Cc2ccccc2)C(=O)N3C)cc1 (stereo not shown) , state its recorded BTX inhibition.
31

Given O=C(c1sccc1Cl)N1CCC2(CC1)NC(Cc1ccccc1)C(=O)N2Cc1ccccc1 (stereo not shown) , state its recorded BTX inhibition.
49

Given Cc1onc(-c2c(F)cccc2Cl)c1C(=O)N1CCC2(CC1)NC(=O)C(C(C)C)N2 (stereo not shown) , state its recorded BTX inhibition.
33

Given CN1C(=O)C(Cc2ccccc2)NC12CCN(C(=O)C=Cc1ccccc1Cl)CC2 (stereo not shown) , state its recorded BTX inhibition.
48

###

ASSAY TARGET: 5-HT transporter (Rattus norvegicus, UniProt P31652)
Construct: synaptosomes of rat brain areas are freshly isolated; from tissue; host or cells: rat brain synaptosomes (P2 fraction) from marrow and pons
Sequence (P31652 whole entry): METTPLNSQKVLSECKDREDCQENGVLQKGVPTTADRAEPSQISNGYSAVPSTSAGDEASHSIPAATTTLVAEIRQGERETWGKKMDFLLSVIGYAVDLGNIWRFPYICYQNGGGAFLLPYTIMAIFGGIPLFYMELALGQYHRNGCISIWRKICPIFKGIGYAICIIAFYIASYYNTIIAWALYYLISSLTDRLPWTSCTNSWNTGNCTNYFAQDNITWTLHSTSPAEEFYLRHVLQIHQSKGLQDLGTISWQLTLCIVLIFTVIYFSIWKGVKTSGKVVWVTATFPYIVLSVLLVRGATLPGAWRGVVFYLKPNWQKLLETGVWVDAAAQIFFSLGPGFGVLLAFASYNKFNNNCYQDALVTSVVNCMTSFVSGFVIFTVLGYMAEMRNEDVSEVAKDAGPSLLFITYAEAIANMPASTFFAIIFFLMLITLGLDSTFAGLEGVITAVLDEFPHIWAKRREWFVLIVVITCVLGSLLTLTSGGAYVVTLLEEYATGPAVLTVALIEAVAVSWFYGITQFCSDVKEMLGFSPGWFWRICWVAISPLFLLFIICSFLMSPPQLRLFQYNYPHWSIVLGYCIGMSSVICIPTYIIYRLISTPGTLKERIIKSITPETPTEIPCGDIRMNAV
ASSAY PROTOCOL: Inhibition of 5-HT uptake in rat brain synaptosomes
Type: biochemical
APPLIED CONDITIONS: read-out: Uptake 5-HT, % inhibition; Table III; rat, 1 μM
Documented inhibition at 1 µM across a set of molecules
Your answer is read as %, so omit the unit and give the number.

MOLECULE: CSCCC1NC2(CCN(C(=O)CCC3CCCC3)CC2)N(Cc2ccccc2)C1=O (stereo not shown)
MEASURE UNIT: %
inhibition at 1 µM: 79
--
MOLECULE: CCCC(C)C(=O)N1CCC2(CC1)NCC(=O)N2Cc1ccccc1C#N (stereo not shown)
MEASURE UNIT: %
inhibition at 1 µM: 53
--
MOLECULE: Cc1ccc(Cl)c(C(=O)N2CCC3(CC2)NC(Cc2ccccc2)C(=O)N3C)c1F (stereo not shown)
MEASURE UNIT: %
inhibition at 1 µM: 30

Attention now shifts to the item below.
Request body: readout inhibition at 1 µM, system 5-HT transporter (Rattus norvegicus, UniProt P31652), query CC(C)CC1NC2(CCN(C(=O)c3ccc(-c4ccccc4)cc3)CC2)N(Cc2ccc(F)cc2)C1=O (stereo not shown) . Return the value.
33

###

ASSAY TARGET: 5-HT transporter (Rattus norvegicus, UniProt P31652)
Construct: synaptosomes of rat brain areas are freshly isolated; from tissue; host or cells: rat brain synaptosomes (P2 fraction) from marrow and pons
ASSAY PROTOCOL: Inhibition of 5-HT uptake in rat brain synaptosomes
Format: biochemical
APPLIED CONDITIONS: read-out: Uptake 5-HT, % inhibition; Table III; rat, 1 μM
Documented inhibition at 1 µM across a set of molecules
Your answer is read as %, so omit the unit and give the number.

The following molecules have reported results that may help.
MOLECULE: COCC(=O)N1CCC2(CC1)NC(C(C)C)C(=O)N2Cc1cccc(C#N)c1 (centres unmarked)
inhibition at 1 µM, %: 49
--
MOLECULE: CCOC(=O)CN1C(=O)C(Cc2ccccc2)NC12CCN(C(=O)C1CC1)CC2 (centres unmarked)
inhibition at 1 µM, %: 55
--
MOLECULE: CN1C(=O)C(Cc2ccccc2)NC12CCN(C(=O)C=Cc1ccccc1Cl)CC2 (centres unmarked)
inhibition at 1 µM, %: 34
--
MOLECULE: CC(C)C1NC2(CCN(C(=O)c3ccncc3)CC2)N(Cc2ccccc2)C1=O (centres unmarked)
inhibition at 1 µM, %: 57
--
MOLECULE: CC(C)CC1NC2(CCN(C(=O)c3ccc(Cl)nc3)CC2)N(Cc2c(Cl)cccc2Cl)C1=O (centres unmarked)
inhibition at 1 µM, %: 48
--
MOLECULE: CCOC(=O)CN1C(=O)C(Cc2ccccc2)NC12CCN(C(=O)c1ccc(-c3ccccc3)cc1)CC2 (centres unmarked)
inhibition at 1 µM, %: 94

Given C#CCN1C(=O)C(Cc2ccccc2)NC12CCN(C(=O)c1snnc1C)CC2 (centres unmarked) , state its recorded inhibition at 1 µM.
51

Given COc1cc(OC)cc(C(=O)N2CCC3(CC2)NC(=O)C(CC(C)C)N3)c1 (centres unmarked) , state its recorded inhibition at 1 µM.
30
